measured-target: TGFBR2 (human)
procedure-details: radiometric filter-binding kinase assay, Kinase HotSpot
test-settings: compound 0.5 µM; ATP 10 µM
reported-endpoint: residual activity (%)
One number for each entry, in %.

Observe how each entry below is paired with its result.
C#Cc1cccc(Nc2ncnc3cc(OCCOC)c(OCCOC)cc23)c1 = 91.8
O=C1Cc2c([nH]c3ccc([N+](=O)[O-])cc23)-c2ccccc2N1 = 19.4
CS(=O)c1ccc(-c2nc(-c3ccc(F)cc3)c(-c3ccncc3)[nH]2)cc1 (stereo not given) = 144
NC(=O)c1ccc(N(C(N)=O)c2c(F)cccc2F)nc1-c1ccc(F)cc1F = 102
O=C1Nc2cc(Br)ccc2/C1=C1/Nc2ccccc2/C1=N\O = 106
CC(C)[C@H](CO)Nc1nc(Nc2cccc(Cl)c2)c2ncn(C(C)C)c2n1 = 98.1
O=C(NC(NC(=S)Nc1ccc(F)c([N+](=O)[O-])c1)C(Cl)(Cl)Cl)C(c1ccccc1)c1ccccc1 (stereo not given) = 91.6
Oc1ccc(-c2nc(-c3ccc(F)cc3)c(-c3ccncc3)[nH]2)cc1 = 127

Parameters: items (list). Returns: residual activity for each item.
1. Cc1ccc(NC(=O)c2ccc(CN3CCN(C)CC3)cc2)cc1Nc1nc(-c2cccnc2)cs1
2. Nc1n[nH]c2nnc(-c3c(-c4ccccc4)nn4ccccc34)cc12

OUT:
1. 101
2. 112

----------
measured-target: ACVR1 (human)
procedure-details: radiometric filter-binding kinase assay, Kinase HotSpot
test-settings: compound 0.5 µM; ATP 10 µM
reported-endpoint: residual activity (%)
Answers are plain numbers, in %.

In the examples that follow, each entry is paired with its recorded residual activity.
O=C(Nc1ccc(Cl)cc1)c1ccccc1NCc1ccncc1 = 97.2
Nc1nc(Nc2ccc(S(N)(=O)=O)cc2)nn1C(=O)c1c(F)cccc1F = 104
Nc1nc(Nc2ccc(S(N)(=O)=O)cc2)nn1C(=S)Nc1c(F)cccc1F = 60.4

// for each compound below, give its residual activity
1. CSc1nc(-c2ccc(F)cc2)c(-c2ccnc(NC(C)c3ccccc3)c2)[nH]1 (stereo not given)
2. COc1cc2nccc(Oc3ccc(NC(=S)NC(=O)c4ccccc4C)cc3)c2cc1OC
3. CS(=O)c1ccc(-c2nc(-c3ccc(F)cc3)c(-c3ccncc3)[nH]2)cc1 (stereo not given)
4. O=C1Nc2cc(Br)ccc2/C1=C1/Nc2ccccc2/C1=N\O
5. O=C1Nc2ccccc2/C1=C\c1c(Cl)[nH]c2ccccc12
6. NC(=O)c1ccc(N(C(N)=O)c2c(F)cccc2F)nc1-c1ccc(F)cc1F
7. Clc1ccc(Nc2nnc(Cc3ccncc3)c3ccccc23)cc1

OUT:
89.3
93.5
97.4
114
100
105
96.1

----------
measured-target: PRKACG (human) (UniProt P22612)
Sequence (P22612 whole entry, looked up): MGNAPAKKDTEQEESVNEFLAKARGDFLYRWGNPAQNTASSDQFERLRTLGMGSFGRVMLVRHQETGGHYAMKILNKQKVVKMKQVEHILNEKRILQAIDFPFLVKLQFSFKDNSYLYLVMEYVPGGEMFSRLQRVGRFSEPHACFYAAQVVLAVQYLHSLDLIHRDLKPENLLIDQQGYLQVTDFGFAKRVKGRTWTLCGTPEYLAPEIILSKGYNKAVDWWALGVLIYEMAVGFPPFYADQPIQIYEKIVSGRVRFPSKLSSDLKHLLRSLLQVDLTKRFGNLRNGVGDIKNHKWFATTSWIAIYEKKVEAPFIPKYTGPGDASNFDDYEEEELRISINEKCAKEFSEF
procedure-details: radiometric filter-binding kinase assay, Kinase HotSpot
test-settings: compound 0.5 µM; ATP 10 µM
Record form. Attribute: residual activity. Fill in for each entry.
Answers are plain numbers, in %.

Sample records with residual activity:
Cc1cc2ncc(-c3ccccc3)nc2cc1C = 95.8
CC(C)[C@H](CO)Nc1nc(Nc2cccc(Cl)c2)c2ncn(C(C)C)c2n1 = 113

Answer for every listed entry: what is its residual activity? The entries follow.
1. CS(=O)c1ccc(-c2nc(-c3ccc(F)cc3)c(-c3ccncc3)[nH]2)cc1 (stereo not given)
2. C#Cc1cccc(Nc2ncnc3cc(OCCOC)c(OCCOC)cc23)c1
3. COc1cc2ncnc(Nc3ccc(F)c(Cl)c3)c2cc1OCCCN1CCOCC1

OUT:
1. 107
2. 108
3. 107

----------
measured-target: CAMK2G (human)
procedure-details: radiometric filter-binding kinase assay, Kinase HotSpot
test-settings: compound 0.5 µM; ATP 10 µM
Field: residual activity. Provide a value for each of the molecules that follow.
Numbers only, in %.

Nc1n[nH]c2nnc(-c3c(-c4ccccc4)nn4ccccc34)cc12 = 96.7

Hi there! I need residual activity for each item below, if you can.
1. Cc1ccc(NC(=O)c2ccc(CN3CCN(C)CC3)cc2)cc1Nc1nc(-c2cccnc2)cs1
2. O=c1cc(-c2cccc3c2Sc2ccccc2S3)oc(N2CCOCC2)c1

OUT:
98.6
106

Lookup result for `Cc1cc2ncc(-c3ccccc3)nc2cc1C` ; measured residual activity: 105

----------
measured-target: PASK (human) (UniProt Q96RG2)
Sequence (Q96RG2 whole entry, looked up): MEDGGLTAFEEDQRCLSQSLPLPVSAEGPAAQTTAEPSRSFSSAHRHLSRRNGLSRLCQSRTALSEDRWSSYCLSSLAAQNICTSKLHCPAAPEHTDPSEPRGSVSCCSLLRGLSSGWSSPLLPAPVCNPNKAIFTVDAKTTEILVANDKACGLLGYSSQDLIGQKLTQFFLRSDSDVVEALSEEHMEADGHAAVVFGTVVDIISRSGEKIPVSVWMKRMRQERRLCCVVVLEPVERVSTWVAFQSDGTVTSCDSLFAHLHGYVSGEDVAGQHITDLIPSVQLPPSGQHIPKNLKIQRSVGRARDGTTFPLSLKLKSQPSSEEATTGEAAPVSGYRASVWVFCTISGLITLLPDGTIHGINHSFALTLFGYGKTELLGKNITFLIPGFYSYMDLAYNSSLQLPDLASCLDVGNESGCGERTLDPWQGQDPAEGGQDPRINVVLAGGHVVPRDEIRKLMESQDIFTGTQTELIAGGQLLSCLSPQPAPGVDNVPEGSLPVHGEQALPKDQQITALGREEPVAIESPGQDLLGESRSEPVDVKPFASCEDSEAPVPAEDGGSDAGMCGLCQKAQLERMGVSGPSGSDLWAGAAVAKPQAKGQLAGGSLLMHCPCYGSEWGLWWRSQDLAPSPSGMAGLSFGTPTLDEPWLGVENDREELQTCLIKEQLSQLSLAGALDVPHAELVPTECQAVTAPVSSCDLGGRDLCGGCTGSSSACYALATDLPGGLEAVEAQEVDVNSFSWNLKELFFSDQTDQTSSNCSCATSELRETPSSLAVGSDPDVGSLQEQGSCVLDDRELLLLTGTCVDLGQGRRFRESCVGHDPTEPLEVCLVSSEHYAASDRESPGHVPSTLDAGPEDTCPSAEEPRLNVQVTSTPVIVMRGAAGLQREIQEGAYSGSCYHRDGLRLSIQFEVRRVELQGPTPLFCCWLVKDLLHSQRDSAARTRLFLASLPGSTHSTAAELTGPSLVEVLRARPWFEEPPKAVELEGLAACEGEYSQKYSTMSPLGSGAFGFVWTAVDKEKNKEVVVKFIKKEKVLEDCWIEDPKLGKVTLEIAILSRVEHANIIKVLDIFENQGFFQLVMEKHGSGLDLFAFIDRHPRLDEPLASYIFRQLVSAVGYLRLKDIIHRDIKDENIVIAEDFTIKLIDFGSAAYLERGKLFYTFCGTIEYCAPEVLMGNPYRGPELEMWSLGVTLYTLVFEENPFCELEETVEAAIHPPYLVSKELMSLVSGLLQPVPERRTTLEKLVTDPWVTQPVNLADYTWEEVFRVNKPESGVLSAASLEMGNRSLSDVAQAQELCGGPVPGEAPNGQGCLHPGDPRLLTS
procedure-details: radiometric filter-binding kinase assay, Kinase HotSpot
test-settings: compound 0.5 µM; ATP 10 µM
reported-endpoint: residual activity (%)
Answers are plain numbers, in %.

Oc1ccc(-c2nc(-c3ccc(F)cc3)c(-c3ccncc3)[nH]2)cc1 = 79.3
NC(=O)c1ccc(N(C(N)=O)c2c(F)cccc2F)nc1-c1ccc(F)cc1F = 103
O=c1cc(-c2cccc3c2Sc2ccccc2S3)oc(N2CCOCC2)c1 = 101
COc1ccc(-c2cnc3c(-c4ccsc4)cnn3c2)cc1 = 79.5
COc1cc2ncnc(Nc3ccc(F)c(Cl)c3)c2cc1OCCCN1CCOCC1 = 97.9

Proceeding to the next molecule to report its residual activity.
Entry `Nc1nc(Nc2ccc(S(N)(=O)=O)cc2)nn1C(=O)c1c(F)cccc1F` — recorded residual activity = 91.1

----------
Provide the reported residual activity of each item.
measured-target: EGFR (human) (UniProt P00533)
Sequence (P00533 whole entry, looked up): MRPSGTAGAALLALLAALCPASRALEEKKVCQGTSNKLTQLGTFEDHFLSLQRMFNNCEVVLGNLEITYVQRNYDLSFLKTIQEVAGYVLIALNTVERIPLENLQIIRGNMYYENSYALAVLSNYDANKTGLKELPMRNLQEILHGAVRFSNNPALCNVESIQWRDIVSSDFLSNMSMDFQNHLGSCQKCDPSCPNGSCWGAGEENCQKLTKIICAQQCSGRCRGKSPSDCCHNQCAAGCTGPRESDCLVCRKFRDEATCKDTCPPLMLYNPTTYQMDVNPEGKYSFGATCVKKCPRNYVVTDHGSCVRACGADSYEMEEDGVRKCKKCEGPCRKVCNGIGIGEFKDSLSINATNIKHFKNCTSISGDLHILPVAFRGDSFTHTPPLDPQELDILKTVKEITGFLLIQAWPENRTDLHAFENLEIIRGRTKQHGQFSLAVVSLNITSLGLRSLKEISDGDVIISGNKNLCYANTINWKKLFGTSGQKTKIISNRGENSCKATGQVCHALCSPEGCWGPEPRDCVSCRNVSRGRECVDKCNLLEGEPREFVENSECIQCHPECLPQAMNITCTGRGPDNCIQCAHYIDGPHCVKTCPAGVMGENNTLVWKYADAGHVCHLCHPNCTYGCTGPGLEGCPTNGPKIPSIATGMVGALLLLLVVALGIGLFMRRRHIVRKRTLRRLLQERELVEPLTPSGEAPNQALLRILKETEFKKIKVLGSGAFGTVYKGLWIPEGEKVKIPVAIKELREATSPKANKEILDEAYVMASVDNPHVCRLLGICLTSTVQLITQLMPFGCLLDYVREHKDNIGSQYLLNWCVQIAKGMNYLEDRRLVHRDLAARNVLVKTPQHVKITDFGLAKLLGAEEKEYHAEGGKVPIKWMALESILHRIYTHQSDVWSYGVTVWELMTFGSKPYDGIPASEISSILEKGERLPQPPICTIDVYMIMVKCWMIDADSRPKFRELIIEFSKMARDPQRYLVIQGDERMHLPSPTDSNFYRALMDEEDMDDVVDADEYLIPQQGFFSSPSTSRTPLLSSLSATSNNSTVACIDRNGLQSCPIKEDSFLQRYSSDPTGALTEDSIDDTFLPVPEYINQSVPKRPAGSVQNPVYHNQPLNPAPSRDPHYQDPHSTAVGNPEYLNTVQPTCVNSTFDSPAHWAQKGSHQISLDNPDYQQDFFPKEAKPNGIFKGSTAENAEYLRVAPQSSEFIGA
procedure-details: radiometric filter-binding kinase assay, Kinase HotSpot
test-settings: compound 0.5 µM; ATP 10 µM

Provide residual activity for all items below, preserving their order.
1. CCCNC(=O)Nc1ccc(Oc2ncnc3cc(OC)c(OC)cc23)cc1Cl
2. CC(C)n1cnc2c(Nc3cccc(Cl)c3)nc(NCCO)nc21

OUT:
88.1%
91.5%

----------
Give measured residual activity for each item. Keep answers brief.
measured-target: PLK3 (human)
procedure-details: radiometric filter-binding kinase assay, Kinase HotSpot
test-settings: compound 0.5 µM; ATP 10 µM
Give bare numbers, in %.

Nc1nc(Nc2ccc(S(N)(=O)=O)cc2)nn1C(=S)Nc1c(F)cccc1F = 92.2

Can you give me residual activity for all of these, one by one?
1. O=c1cc(N2CCNCC2)oc2c(-c3ccccc3)cccc12
2. CCCNC(=O)Nc1ccc(Oc2ncnc3cc(OC)c(OC)cc23)cc1Cl

OUT:
1: 104; 2: 95

Count: 6. Required value per item: residual activity.
1. Oc1ccc(-c2nc(-c3ccc(F)cc3)c(-c3ccncc3)[nH]2)cc1
2. Nc1nc(Nc2ccc(S(N)(=O)=O)cc2)nn1C(=O)c1c(F)cccc1F
3. Clc1ccc(Nc2nnc(Cc3ccncc3)c3ccccc23)cc1
4. NC(=O)c1ccc(N(C(N)=O)c2c(F)cccc2F)nc1-c1ccc(F)cc1F
5. O=c1cc(-c2cccc3c2Sc2ccccc2S3)oc(N2CCOCC2)c1
6. Cc1ccc(NC(=O)c2ccc(CN3CCN(C)CC3)cc2)cc1Nc1nc(-c2cccnc2)cs1

OUT:
96.2
91.3
100
94.7
98.1
101

# map each compound to its residual activity
1. CCN1/C(=C/C(C)=O)Sc2ccc(OC)cc21
2. Nc1n[nH]c2nnc(-c3c(-c4ccccc4)nn4ccccc34)cc12
3. O=C1Nc2cc(Br)ccc2/C1=C1/Nc2ccccc2/C1=N\O
4. COc1ccc(-c2cnc3c(-c4ccsc4)cnn3c2)cc1
5. CSc1nc(-c2ccc(F)cc2)c(-c2ccnc(NC(C)c3ccccc3)c2)[nH]1 (stereo unspecified)
6. CC(C)(C)c1nc2c3ccc(F)cc3c3c(=O)[nH]ccc3c2[nH]1
7. COc1cc2nccc(Oc3ccc(NC(=S)NC(=O)c4ccccc4C)cc3)c2cc1OC

OUT:
99.4
100
95.3
98
99.7
11
92.1

Batch lookup, residual activity per entry.
1. CC(C)n1cnc2c(Nc3cccc(Cl)c3)nc(NCCO)nc21
2. CC(C)[C@H](CO)Nc1nc(Nc2cccc(Cl)c2)c2ncn(C(C)C)c2n1
3. CS(=O)c1ccc(-c2nc(-c3ccc(F)cc3)c(-c3ccncc3)[nH]2)cc1 (stereo unspecified)
4. Cc1cc2ncc(-c3ccccc3)nc2cc1C
5. COc1cc2ncnc(Nc3ccc(F)c(Cl)c3)c2cc1OCCCN1CCOCC1

OUT:
1: 48.5; 2: 86.4; 3: 97.3; 4: 90.1; 5: 103

Give me residual activity for each of these compounds, listed below.
1. O=C(Nc1ccc(Cl)cc1)c1ccccc1NCc1ccncc1
2. O=C1Cc2c([nH]c3ccc([N+](=O)[O-])cc23)-c2ccccc2N1

OUT:
98.5
98.8

Take each entry in turn and give its residual activity.
1. C#Cc1cccc(Nc2ncnc3cc(OCCOC)c(OCCOC)cc23)c1
2. O=C(NC(NC(=S)Nc1ccc(F)c([N+](=O)[O-])c1)C(Cl)(Cl)Cl)C(c1ccccc1)c1ccccc1 (stereo unspecified)
3. O=C1Nc2ccccc2/C1=C\c1c(Cl)[nH]c2ccccc12

OUT:
102
94.4
101

----------
Please go through the items and note down their residual activity.
measured-target: TYRO3 (human) (UniProt Q06418)
Sequence (Q06418 whole entry, looked up): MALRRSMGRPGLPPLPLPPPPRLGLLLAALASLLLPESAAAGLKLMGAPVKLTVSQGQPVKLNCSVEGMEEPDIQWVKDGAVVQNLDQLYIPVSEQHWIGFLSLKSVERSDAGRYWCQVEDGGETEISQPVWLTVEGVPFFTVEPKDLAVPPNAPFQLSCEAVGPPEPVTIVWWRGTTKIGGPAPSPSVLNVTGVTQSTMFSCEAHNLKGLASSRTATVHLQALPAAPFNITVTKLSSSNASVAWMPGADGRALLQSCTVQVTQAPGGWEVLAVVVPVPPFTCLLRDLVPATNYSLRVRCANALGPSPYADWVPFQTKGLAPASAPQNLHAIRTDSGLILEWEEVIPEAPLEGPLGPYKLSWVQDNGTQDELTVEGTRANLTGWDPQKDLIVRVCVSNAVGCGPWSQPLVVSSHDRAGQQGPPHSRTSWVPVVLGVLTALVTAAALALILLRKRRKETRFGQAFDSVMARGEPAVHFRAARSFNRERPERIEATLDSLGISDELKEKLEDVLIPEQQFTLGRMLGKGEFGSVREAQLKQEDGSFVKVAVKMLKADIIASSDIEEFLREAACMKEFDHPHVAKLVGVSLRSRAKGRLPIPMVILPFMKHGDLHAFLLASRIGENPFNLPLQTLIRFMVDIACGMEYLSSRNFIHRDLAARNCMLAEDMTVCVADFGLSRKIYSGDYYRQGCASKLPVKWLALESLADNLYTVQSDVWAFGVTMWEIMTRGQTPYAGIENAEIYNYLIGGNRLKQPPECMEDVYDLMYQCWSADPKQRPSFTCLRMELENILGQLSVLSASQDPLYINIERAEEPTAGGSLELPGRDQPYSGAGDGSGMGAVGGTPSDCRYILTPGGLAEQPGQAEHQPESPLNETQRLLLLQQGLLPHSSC
procedure-details: radiometric filter-binding kinase assay, Kinase HotSpot
test-settings: compound 0.5 µM; ATP 10 µM
Please give the number followed by its unit.

The examples below pair each entry with its known result.
Cc1cc2ncc(-c3ccccc3)nc2cc1C = 90.9%
COc1ccc(-c2cnc3c(-c4ccsc4)cnn3c2)cc1 = 91.8%
O=c1cc(N2CCNCC2)oc2c(-c3ccccc3)cccc12 = 107%
COc1cc2ncnc(Nc3ccc(F)c(Cl)c3)c2cc1OCCCN1CCOCC1 = 94.9%
Oc1ccc(-c2nc(-c3ccc(F)cc3)c(-c3ccncc3)[nH]2)cc1 = 97.5%

Please report residual activity for every entry that follows.
1. Clc1ccc(Nc2nnc(Cc3ccncc3)c3ccccc23)cc1
2. CS(=O)c1ccc(-c2nc(-c3ccc(F)cc3)c(-c3ccncc3)[nH]2)cc1 (centres undefined)
3. CSc1nc(-c2ccc(F)cc2)c(-c2ccnc(NC(C)c3ccccc3)c2)[nH]1 (centres undefined)
4. O=C1Nc2ccccc2/C1=C\c1c(Cl)[nH]c2ccccc12

OUT:
1. 98.2%
2. 97%
3. 108%
4. 99.4%
